B1: Formin-binding protein 4, residues 200 to 261; numbered along this chain, Q8N3X1 (parent)
chain: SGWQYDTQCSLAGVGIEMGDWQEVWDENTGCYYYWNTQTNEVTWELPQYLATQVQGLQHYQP

Variants of: B1
Assay: abundance fitness (aPCA) (normalised: wild type 0, dead -1); higher = more abundant; growth selection in yeast, the domain comes from the species named
Conditions: Homo sapiens

{"columns": ["variant name", "abundance fitness"],
 "data": [
  ["D20V", -0.237],
  ["T52G", 0.038],
  ["C9W", -0.377],
  ["G19H", -0.642],
  ["W25M", -0.129],
  ["T39P", -0.873],
  ["G56H", -0.186],
  ["L46M", -0.224],
  ["W3V", 0.054],
  ["C31I", -0.326],
  ["P62E", -0.469],
  ["N36F", -0.744],
  ["H59T", 0.147],
  ["V42P", -0.415],
  ["Q48F", -0.293],
  ["Q8K", 0.239],
  ["L46S", -0.779],
  ["Y34T", -0.847],
  ["Y60R", 0.112],
  ["T29A", 0.162],
  ["G13A", -0.237],
  ["Q8M", -0.097],
  ["W21P", -0.812],
  ["Q53G", -0.688],
  ["S10K", -0.457],
  ["T39C", -0.307],
  ["D26L", -0.5],
  ["Q22S", -0.136],
  ["E41P", -0.776],
  ["G56F", -0.464],
  ["T43A", -0.1],
  ["Y32K", -1.02],
  ["Y49K", -0.181],
  ["T7E", -0.392],
  ["Y5W", -0.207],
  ["T52Y", -0.248],
  ["Y49D", -0.006],
  ["Q48W", -0.417],
  ["W3I", -0.217]
]}
